# Assay protocol: Dynamic viscosity (Anton Paar Stabinger SVM3000 viscometer)
# Assay type: physicochemical
# Condition description: amine compound itself
Result type: Dynamic viscosity (mPa · s)

Consider the following illustrative entries.
Molecule	Result units	Dynamic viscosity
CN(C)CCOCCN(C)C	mPa · s	0.9
CCC(N)(CO)CO [AEPD, 2-amino-2-ethylpropane-1,3-diol, reference compound]	mPa · s	1844
CN(C)CCN(C)CCN(C)C	mPa · s	1.0

I: CN(C)CCOCCNC(C)(C)C
II: CC(C)(C)NCCOCCO [TBAEE, 2-(2-tert-butylaminoethoxy)ethanol, reference compound]
QUERY: Smaller Dynamic viscosity value, I vs II ? // respond with label for picked entry
RESULT: I
(I: 1.5 mPa · s, II: 16.9 mPa · s)
